# Tested on: mobilized peripheral blood CD34+ cells
# RUN_DESCRIPTION: CD34+ expansion assay
# Assay type: cell-based
# COND: Homo sapiens; read-out: CD34 Frequency EC50
READOUT_KIND: EC50

* COc1ccc(C(=O)Nc2ccc3c(c2)oc2ccccc23)cc1[N+](=O)[O-] | < 0.5 µM
* COc1ccc(-c2nnc(Nc3ccccc3O)c3ccccc23)cc1 | 1 to 5 µM
* c1ccc(-c2nnc(-c3csc(-c4cccnc4)n3)o2)cc1 | 0.5 to 1 µM
* COc1cc(C(F)(F)F)ccc1C(=O)Nc1cccc(N2CCOCC2)c1 | 0.5 to 1 µM
* O=C(N/N=C\c1ccccc1C(F)(F)F)c1n[nH]c2c1CCc1ccccc1-2 | 1 to 5 µM
* C/C(=N\Nc1ncc(Br)cn1)c1cccc([N+](=O)[O-])c1 | < 0.5 µM
* O=C(Nc1ccccc1Cl)c1cnc(-c2noc3ccccc23)s1 | 0.5 to 1 µM
* Cc1ccc(Nc2cc(-c3ccccc3)nc3ncnn23)cc1 | 1 to 5 µM
* Cc1cc(-c2nnc3sc(-c4ccc(F)cc4)nn23)[nH]n1 | 0.5 to 1 µM
* CCN(CC)C(=O)c1nc2c(s1)CCN(c1ncccn1)CC2 | 1 to 5 µM
* Fc1ccc(-c2cc(-c3ccccc3)nc(-n3cccn3)n2)cc1 | 0.5 to 1 µM
* Cn1nc(C(C)(C)C)cc1-c1nn2c(-c3cccs3)nnc2s1 | 1 to 5 µM
* Cc1ccc(Cl)cc1-n1ccc2nc(N3CCCCC3)ncc2c1=O | 1 to 5 µM
* Cc1cccc(-c2nc(-c3c[nH]c(C(=O)N4CCCC4)c3)cs2)c1 | 1 to 5 µM
* COc1ccc(Nc2nc(-c3ccccn3)cs2)cc1 | < 0.5 µM
* O=c1[nH]c(NC2CCCC2)nc2nccc(-c3cccs3)c12 | 1 to 5 µM
* Cc1ccc(-c2ccc3c(C)nn(-c4ccccn4)c3n2)cc1 | 1 to 5 µM
* CC(C)OCCCn1c(=O)c(-c2cccs2)nc2cc(S(=O)(=O)N3CCOCC3)ccc21 | 1 to 5 µM
* Cc1ccc(C)c(NC(=O)c2nc3c(s2)CCCN3c2ccc(C)nn2)c1 | 1 to 5 µM
